- Tested on: subgenomic genotype 2a replicon cell line
- ASSAY SUMMARY: HCV replicon assay, genotype 2a
- Format: cell-based, HCV genotype 2a
- CONDITION: Hepatitis C virus
pEC50: −log10 of the molar value.
Parameter threshold = 6. Response is T when pEC50 meets or exceeds it, else F.

A selection of reference data follows.
CNC(=O)c1c2cc(C3CC3)c(N(CCCNC(C)=O)S(C)(=O)=O)cc2nn1-c1ccc(Nc2ccc(F)cc2)cc1	F
CNC(=O)c1c2cc(C3CC3)c(N(CCCNC(=O)c3cccc(OC)c3F)S(C)(=O)=O)cc2nn1-c1ccc(Br)cc1	T
CNC(=O)c1c2cc(C3CC3)c(N(CCCNC(=O)c3ccnc(OC)c3)S(C)(=O)=O)cc2nn1-c1ccc(Br)cc1	T
CNC(=O)c1c2cc(C3CC3)c(N(CCCNC(=O)CCC(=O)OC)S(C)(=O)=O)cc2nn1-c1ccc(Br)cc1	T
CNC(=O)c1c2cc(C3CC3)c(N(CCCNC(=O)c3cccnc3OC)S(C)(=O)=O)cc2nn1-c1ccc(Br)cc1	T

Could you verify whether the entry `CNC(=O)c1c2cc(C3CC3)c(N(CCCN3CCCCC3)S(C)(=O)=O)cc2nn1-c1ccc(Oc2ccc(F)cc2)cc1` shows pEC50 of no less than 6? F

----------
# Lookup of reported EC50 keyed by entry
- Tested on: subgenomic genotype 2a replicon cell line
- ASSAY SUMMARY: HCV replicon assay, genotype 2a
- Format: cell-based, HCV genotype 2a
Reply with a number, then the unit it belongs to.

Consider the worked cases shown below.
C=CCN(c1cc2nn(-c3ccc(Br)cc3)c(C(=O)NC)c2cc1C1CC1)S(C)(=O)=O	0.46 µM
CNC(=O)c1c2cc(C3CC3)c(N(CCC3COC(C)(C)OC3)S(C)(=O)=O)cc2nn1-c1ccc(Br)cc1	0.18 µM

Would you kindly share the measured EC50 for `CNC(=O)c1c2cc(C3CC3)c(N(CCCO)S(C)(=O)=O)cc2nn1-c1ccc(Cl)cc1` ? 1.03 µM

Moving on to the next molecule: `CNC(=O)c1c2cc(C3CC3)c(N(CCCNC(=O)C3CCC3)S(C)(=O)=O)cc2nn1-c1ccc(Br)cc1` 2.86 µM

----------
Attribute: IC50
- TARGET DESC: 1b (BK) NS5bΔ21 (Hepatitis C virus genotype 1b (isolate BK) (HCV), UniProt P26663)
- Sequence (P26663 2420-2989): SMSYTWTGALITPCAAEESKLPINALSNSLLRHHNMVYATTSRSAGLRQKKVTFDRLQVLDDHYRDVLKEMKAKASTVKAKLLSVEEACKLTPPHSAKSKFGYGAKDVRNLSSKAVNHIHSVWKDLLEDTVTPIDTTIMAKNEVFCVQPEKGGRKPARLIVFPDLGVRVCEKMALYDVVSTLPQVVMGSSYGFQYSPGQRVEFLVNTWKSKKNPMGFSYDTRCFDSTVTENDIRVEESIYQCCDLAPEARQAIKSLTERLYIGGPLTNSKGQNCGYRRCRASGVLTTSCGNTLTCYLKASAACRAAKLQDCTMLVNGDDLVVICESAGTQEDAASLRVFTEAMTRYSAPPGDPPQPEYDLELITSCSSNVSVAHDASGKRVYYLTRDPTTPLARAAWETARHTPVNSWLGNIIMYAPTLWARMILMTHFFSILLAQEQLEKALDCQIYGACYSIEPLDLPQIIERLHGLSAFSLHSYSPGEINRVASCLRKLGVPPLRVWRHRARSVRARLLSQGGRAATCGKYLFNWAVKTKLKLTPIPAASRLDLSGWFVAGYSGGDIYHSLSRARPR
- ASSAY SUMMARY: HCV polymerase inhibition assay, genotype 1b
- Type: biochemical, HCV genotype 1b (BK)
- CONDITION: 1b (BK) NS5bΔ21, 33P-GTP incorporation; read-out: 1b polymerase IC50 (range class)

The examples below pair each entry with its known result.
CNC(=O)c1c2cc(C3CC3)c(N(CC3CC3)S(C)(=O)=O)cc2nn1-c1ccc(Cl)cc1 [Compound 246]	< 990 nM
CNC(=O)c1c2cc(C3CC3)c(N(CCCNC(=O)CCC(=O)NC(C)C)S(C)(=O)=O)cc2nn1-c1ccc(Br)cc1 [Compound 67]	< 990 nM

Any idea what its IC50 is? The molecule is CNC(=O)c1c2cc(C3CC3)c(N(CCCNC(=O)[C@H]3CC=CC[C@H]3C(=O)O)S(C)(=O)=O)cc2nn1-c1ccc(Br)cc1 [Compound 188] < 990 nM

----------
Entries and their measured pIC50 follow.
- TARGET DESC: 1b (BK) NS5bΔ21 (Hepatitis C virus genotype 1b (isolate BK) (HCV), UniProt P26663)
- ASSAY SUMMARY: HCV polymerase inhibition assay, genotype 1b
- Assay type: biochemical, HCV genotype 1b (BK)
- CONDITION: 1b (BK) NS5bΔ21, 33P-GTP incorporation; read-out: 1b polymerase IC50 (range class)
pIC50: −log10 of the molar value.

See these solved cases before continuing.
CNC(=O)c1c2cc(C3CC3)c(N(CCCN3CCCC3=O)S(C)(=O)=O)cc2nn1-c1ccc(Br)cc1	> 6.00
CNC(=O)c1c2cc(C3CC3)c(N(CCCOC(=O)c3ccccc3C(=O)O)S(C)(=O)=O)cc2nn1-c1ccc(Oc2ccc(F)cc2)cc1	> 6.00
CNC(=O)CCCN(c1cc2nn(-c3ccc(Br)cc3)c(C(=O)NC)c2cc1C1CC1)S(C)(=O)=O	> 6.00
CNC(=O)c1c2cc(C3CC3)c(N(CCCN(C)S(C)(=O)=O)S(C)(=O)=O)cc2nn1-c1ccc(Br)cc1	> 6.00
CNC(=O)c1c2cc(C3CC3)c(N(CCCNC(=O)[C@H]3CCC[C@H]3C(=O)O)S(C)(=O)=O)cc2nn1-c1ccc(Br)cc1	> 6.00
CNC(=O)c1c2cc(C3CC3)c(N(CCCNC(C)=O)S(C)(=O)=O)cc2nn1-c1ccc(NCC(C)C)cc1	5.00 to 6.00

Field: next molecule
I am curious: what pIC50 value has been reported for `CNC(=O)c1c2cc(C3CC3)c(N(CCCNC(=O)CCN(C)C)S(C)(=O)=O)cc2nn1-c1ccc(Br)cc1` ? 5.00 to 6.00

----------
- Tested on: subgenomic genotype 1a replicon cell line
- ASSAY SUMMARY: HCV replicon assay, genotype 1a
- Assay type: cell-based, HCV genotype 1a
- CONDITION: Hepatitis C virus
MEASURED ENDPOINT: pEC50
Scale for pEC50: -log10 of concentration given in mol/L; no unit attached.

Some entries whose results are on file:
CNC(=O)c1c2cc(C3CC3)c(N(CCCNC(C)=O)S(C)(=O)=O)cc2nn1-c1ccc(Nc2ccc(F)cc2)cc1	5.92
CNC(=O)c1c2cc(C3CC3)c(N(CCCO)S(C)(=O)=O)cc2nn1-c1ccc(Nc2ccc(F)cc2)cc1	6.54
CNC(=O)c1c2cc(C3CC3)c(N(CCCNC(=O)c3nonc3C)S(C)(=O)=O)cc2nn1-c1ccc(Br)cc1	6.74

Quick one: pEC50 for `CNC(=O)c1c2cc(C3CC3)c(N(CCCNS(C)(=O)=O)S(C)(=O)=O)cc2nn1-c1ccc(Br)cc1` ? 6.27

Here is the next compound: `CNC(=O)c1c2cc(C3CC3)c(N(CCCNC(=O)c3ncoc3C)S(C)(=O)=O)cc2nn1-c1ccc(Br)cc1` 7.22

// next record `CNC(=O)c1c2cc(C3CC3)c(N(CCCNC(C)=O)S(C)(=O)=O)cc2nn1-c1ccc(Br)cc1` 6.52

----------
Reported pIC50 values for a set of compounds
- TARGET DESC: 1b (BK) NS5bΔ21 (Hepatitis C virus genotype 1b (isolate BK) (HCV))
- ASSAY SUMMARY: HCV polymerase inhibition assay, genotype 1b
- Assay type: biochemical, HCV genotype 1b (BK)
- CONDITION: genotype 1b; read-out: 1b NS5b polymerase IC50
- Description: HCV polymerase reactions were carried out using a modified method of Howe et al., Antimicrobial Agents and Chemotherapy 2004 48(12): 4813-4821. […] Terminated reactions were transferred to DEAE 96-well filter plates, unincorporated nucleotides washed from the filters and 50 μL scintillation fluid added prior to reading on a scintillation counter. […]
pIC50 is defined as minus the log10 of a concentration measured in mol/L.

// solved cases for pIC50 follow
CCN(c1cc2nn(-c3ccc(NCC(C)C)cc3)c(C(=O)NC)c2cc1C1CC1)S(C)(=O)=O	6.37
CNC(=O)c1c2cc(C3CC3)c(N(CCCNC(=O)c3nonc3C)S(C)(=O)=O)cc2nn1-c1ccc(Br)cc1	6.59
CNC(=O)c1c2cc(C3CC3)c(N(CCCNS(C)(=O)=O)S(C)(=O)=O)cc2nn1-c1ccc(Br)cc1	7.05
CNC(=O)c1c2cc(C3CC3)c(N(CCCNC(=O)c3ccccc3)S(C)(=O)=O)cc2nn1-c1ccc(Br)cc1	6.80
CNC(=O)c1c2cc(C3CC3)c(N(CCCNC(C)=O)S(C)(=O)=O)cc2nn1-c1ccc(Nc2ccc(F)cc2)cc1	6.89

Item `CNC(=O)c1c2cc(C3CC3)c(N(CCCNC(C)=O)S(C)(=O)=O)cc2nn1-c1ccc(Br)cc1` has what recorded pIC50? 6.59

Follow-up item: `CCN(c1cc2nn(-c3ccc(Oc4ccccc4F)cc3)c(C(=O)NC)c2cc1C1CC1)S(C)(=O)=O` 6.92

One more compound: `C=CCN(c1cc2nn(-c3ccc(Br)cc3)c(C(=O)NC)c2cc1C1CC1)S(C)(=O)=O` 7.00

Next: `CNC(=O)c1c2cc(C3CC3)c(N(C)S(C)(=O)=O)cc2nn1-c1ccc(Br)cc1` 6.85

----------
Reported pIC50 values for a set of compounds
- TARGET DESC: 1b (BK) NS5bΔ21 (Hepatitis C virus genotype 1b (isolate BK) (HCV))
- ASSAY SUMMARY: HCV polymerase inhibition assay, genotype 1b
- Type: biochemical, HCV genotype 1b (BK)
- CONDITION: 1b (BK) NS5bΔ21, 33P-GTP incorporation; read-out: 1b polymerase IC50 (range class)
pIC50: −log10 of the molar value.

Sample records with pIC50:
CNC(=O)c1c2cc(C3CC3)c(N(CCCC(=O)NS(=O)(=O)N(C)C)S(C)(=O)=O)cc2nn1-c1ccc(Br)cc1	> 6.00
CNC(=O)c1c2cc(C3CC3)c(N(CCNC(=O)Cc3nn[nH]n3)S(C)(=O)=O)cc2nn1-c1ccc(Nc2ccc(F)cc2)cc1	> 6.00

# lookup: pIC50 of `CNC(=O)c1c2cc(C3CC3)c(N(CCCNC(=O)c3ccnnc3)S(C)(=O)=O)cc2nn1-c1ccc(Br)cc1` > 6.00
